The reported measurements were obtained from paper PMC6561178.

- System name: T1, Cc78 (Caulobacter crescentus NA1000, UniProt B8GW92 1-78, del79-82)
- T1 sequence: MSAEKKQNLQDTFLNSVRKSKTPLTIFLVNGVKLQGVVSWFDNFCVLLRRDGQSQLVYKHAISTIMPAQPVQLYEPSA
- Assay text: EMSA; Hill n 1.2; EMSA: 34 mM Tris-HCl pH 7.5, 50 mM NaCl, 50 mM KCl, 50 mM NH4Cl, 11.4 mM EDTA, 12% glycerol, 30 C, 30 min, ~1 nM 32P-RNA, Kd in Hfq6; anisotropy: 10 mM Tris-HCl
- Settings: protein: recombinant; tags: untagged after self-cleaved intein; chain copies: 6; label: 32P; stem-loops
Result type: pKd
Lab note: report pKd as minus log10 of the concentration in molar units, number only.

Ask: // pKd lookup, key: R133 (structured_RNA) RNA: GGAGCCCUUUCGGGCGUUUCCUCCCAAUGACUCGGCCGCCCUCUUCUCCUGGAGGGCGGCCGUUCUUUU
Result: 6.62
